test system: HEK293 cells; assay type: cell-based, human; settings: circular RNA encoding Gluc with the listed IRES (UTR truncated to 675 nt) transfected into HEK293 cells; supernatant after 24 hours
Catalogue of Expression (luminescence from secreted Gluc protein) readings, one per entry.
Please give the numeric answer without any surrounding text.

>>> recorded_result("Hubei tombus-like virus 32 (nucleic acid, source: /note=\"Description of Unknown: Hubei tombus-like virus 32 sequence\") DNA: TTCGGGTTTACCCGCGTAAGCGGCCACACTGACTGGTTGTCGGTGTTGAATTTGTATACCAGATGAGGAGACGTTACCACCGTCTCGGCAGTGCTACGTCTGGGAAAGGACTGTGATAGTGGACAGTCCTACCGTCTTTAGATACATTGCGTTGTGTATAGCCCGGGAGGGATTAACTAATAGCAACGCAATGCACACGGCGGTTCGGATTTGCTTGACTGATGGAAAGACATCTAAGTTCTAATTGAACC")
"9.23E+04"

Next molecule, please.
Expression (luminescence from secreted Gluc protein) for Farmington virus (nucleic acid, lipid formulation; source: /note="Description of Unknown: Farmington virus sequence") ACGACGCATAAGCAGAGAAACATAAGAGACTATGTTCATAGTCACCCTGTATTCATTATTGACTTTTATGACCTATTATTAGACCCTTCACGGGTAAATCCTTCTCCTTGCAGTTCTCGCCAAGTACCTCCAAAGTCAGAACG is 1.22E+05
